Provenance of the data: patent US20230295201A1

- System: HCV replicon 2A
- measurement-protocol: HCV Rep 2A EC50 (replicon luciferase)
- Format: cell-based
- experimental-conditions: Hepatitis C virus, 72 h, read-out: HCV Rep 2A EC50, replicon cells, 3 days
- Protocol: Compounds were serially diluted in ten steps of 1:3 dilutions in 384-well plates. All serial dilutions were performed in four replicates per compound within the same 384-well plate. […] The plate was incubated for 30 min at room temperature before the fluorescence signal (excitation 490 nm, emission 520 nm) was measured with a Perkin-Elmer Envision plate reader. […]

compound	EC50 [nM]
C[C@H](NP(=O)(OC[C@@]1(C#N)O[C@@H](c2ccc3c(N)ncnn23)[C@H](O)[C@@H]1O)Oc1cccc2ccccc12)C(=O)OC1CCCCC1 (stereo partly shown)	671
COC(=O)[C@H](C)N[P@](=O)(OC[C@@]1(C#N)O[C@@H](c2ccc3c(N)ncnn23)[C@H](O)[C@@H]1O)Oc1ccccc1	7460
CCC(C)(C)COC(=O)[C@H](C)NP(=O)(OC[C@@]1(C#N)O[C@@H](c2ccc3c(N)ncnn23)[C@H](O)[C@@H]1O)Oc1ccccc1 (stereo partly shown)	787
C[C@H](NP(=O)(OC[C@@]1(C#N)O[C@@H](c2ccc3c(N)ncnn23)[C@H](O)[C@@H]1O)Oc1ccccc1)C(=O)OCC1CCCCC1 (single isomer, unassigned)	1680

----------
- measurement-protocol: in vitro
- experimental-conditions: human
The entries below come with measured CC50 values attached.

molecule	CC50
CC(C)OC(=O)[C@H](C)N[P@](=O)(OC[C@@]1(C#N)O[C@@H](c2ccc3c(N)ncnn23)[C@H](O)[C@@H]1OC(=O)C(C)C)Oc1ccccc1 (single isomer, unassigned)	> 50 µM
CC(C)OC(=O)[C@H](C)N[P@](=O)(OC[C@@]1(C#N)O[C@@H](c2ccc3c(N)ncnn23)[C@H](OC(=O)C(C)C)[C@@H]1O)Oc1ccccc1 (single isomer, unassigned)	> 50 µM
CC(C)OC(=O)[C@H](C)N[P@](=O)(OC[C@@]1(C#N)O[C@@H](c2ccc3c(N)ncnn23)[C@H](O)[C@@H]1OC(=O)C(C)(C)C)Oc1ccccc1 (single isomer, unassigned)	> 50 µM

----------
The entries below come with measured pEC50 values attached.
- System: RSV strain A2
- measurement-protocol: RSV HEp-2 EC50 (infectious cytopathic cell protection assay)
- Assay type: cell-based
- experimental-conditions: human respiratory syncytial virus, HEp-2, 96 h, HEp-2 cells, RSV A2, 4 days; read-out: RSV HEp-2 EC50
pEC50: −log10 of the molar value.

molecule	study-target	sign	pEC50
CCOC(=O)C1(NP(=O)(OC[C@@]2(C#N)O[C@@H](c3ccc4c(N)ncnn34)[C@H](O)[C@@H]2O)Oc2ccccc2)CC1 (mixture of isomers) [Example 106]	RSV strain A2	<	4.37
CCCCCCCCCCCC(=O)Nc1ncnn2c([C@@H]3O[C@](C#N)(CO[P@@](=O)(N[C@@H](C)C(=O)OC4CCCCC4)Oc4ccccc4)[C@@H](O)[C@H]3O)ccc12 [Example 232]	RSV strain A2	=	7.21
C[C@H](NP(=O)(OC[C@@]1(C#N)O[C@@H](c2ccc3c(N)ncnn23)[C@H](O)[C@@H]1O)Oc1ccccc1)C(=O)NC1CCCCC1 (stereo partly shown) [Example 138]	RSV strain A2	=	4.41
CCC(CC)COC(=O)[C@@H](C)NP(=O)(OC[C@@]1(C#N)O[C@@H](c2ccc3c(N)ncnn23)[C@H](O)[C@@H]1O)Oc1ccccc1 (stereo partly shown) [Example 82]	RSV strain A2	=	5.60
CCCCCCCCCCCCCCCCCCOC[C@H](COC(=O)C(C)NP(=O)(OC[C@@]1(C#N)O[C@@H](c2ccc3c(N)ncnn23)[C@H](O)[C@@H]1O)Oc1ccccc1)OCc1ccccc1 (stereo partly shown) [Example 190]	RSV strain A2	=	6.87
CC(C)COC(=O)OCCNP(=O)(OC[C@@]1(C#N)O[C@@H](c2ccc3c(N)ncnn23)[C@H](O)[C@@H]1O)Oc1ccccc1 (stereo partly shown) [Example 177]	RSV strain A2	=	6.98
CC(C)OC(=O)[C@H](C)N[P@](=O)(OC[C@@]1(C#N)O[C@@H](c2ccc3c(N)ncnn23)[C@H](O)[C@@H]1OC(=O)C(C)(C)C)Oc1ccccc1 (single isomer, unassigned) [Example 239]	RSV strain A2	=	6.83
CC(C)OC(=O)[C@@H](C)NP(=O)(OC[C@@]1(C#N)O[C@@H](c2ccc3c(N)ncnn23)[C@H](O)[C@@H]1O)Oc1ccccc1 (stereo partly shown) [Example 86]	RSV strain A2	=	4.65
CC(C)(C)C(=O)OCCNP(=O)(OC[C@@]1(C#N)O[C@@H](c2ccc3c(N)ncnn23)[C@H](O)[C@@H]1O)Oc1ccccc1 (mixture of isomers) [Example 11]	RSV strain A2	=	6.57
CC[C@H](NP(=O)(OC[C@@]1(C#N)O[C@@H](c2ccc3c(N)ncnn23)[C@H](O)[C@@H]1O)Oc1ccccc1)C(=O)OC1CCCCC1 (mixture of isomers) [Example 103]	RSV strain A2	=	6.03
C[C@H](NP(=O)(OC[C@@]1(C#N)O[C@@H](c2ccc3c(N)ncnn23)[C@H](O)[C@@H]1O)Oc1ccccc1)C(=O)OCc1ccccc1 (stereo partly shown) [Example 37]	RSV strain A2	=	6.87
C[C@H](NP(=O)(OC[C@@]1(C#N)O[C@@H](c2ccc3c(N)ncnn23)[C@H](O)[C@@H]1O)Oc1ccccc1)C(=O)OCC(C)(C)C(F)(F)F (stereo partly shown) [Example 260]	RSV strain A2	=	7.18
C[C@H](NP(=O)(OC[C@@]1(C#N)O[C@@H](c2ccc3c(N)ncnn23)[C@H](O)[C@@H]1O)Oc1ccccc1)C(=O)O[C@H]1CC[C@H](c2ccccc2)CC1 (stereo partly shown) [Example 186]	RSV strain A2	=	5.56
CCC(CC)COC(=O)C1(NP(=O)(OC[C@@]2(C#N)O[C@@H](c3ccc4c(N)ncnn34)[C@H](O)[C@@H]2O)Oc2ccccc2)CCC1 (stereo partly shown) [Example 100]	RSV strain A2	<	5.25
CC[C@H](NP(=O)(OC[C@@]1(C#N)O[C@@H](c2ccc3c(N)ncnn23)[C@H](O)[C@@H]1O)Oc1ccccc1)C(=O)OCC(C)(C)C (stereo partly shown) [Example 157]	RSV strain A2	=	6.01
N#C[C@]1(COP(=O)(N[C@H](C(=O)OCC2CC2)C2CCCCC2)Oc2ccccc2)O[C@@H](c2ccc3c(N)ncnn23)[C@H](O)[C@@H]1O (stereo partly shown) [Example 121]	RSV strain A2	<	4.00
